Measurement Target: PI3K-δ (p110δ/p85α) (Homo sapiens (Human), UniProt O00329)
Sequence (O00329 whole entry, species assumed): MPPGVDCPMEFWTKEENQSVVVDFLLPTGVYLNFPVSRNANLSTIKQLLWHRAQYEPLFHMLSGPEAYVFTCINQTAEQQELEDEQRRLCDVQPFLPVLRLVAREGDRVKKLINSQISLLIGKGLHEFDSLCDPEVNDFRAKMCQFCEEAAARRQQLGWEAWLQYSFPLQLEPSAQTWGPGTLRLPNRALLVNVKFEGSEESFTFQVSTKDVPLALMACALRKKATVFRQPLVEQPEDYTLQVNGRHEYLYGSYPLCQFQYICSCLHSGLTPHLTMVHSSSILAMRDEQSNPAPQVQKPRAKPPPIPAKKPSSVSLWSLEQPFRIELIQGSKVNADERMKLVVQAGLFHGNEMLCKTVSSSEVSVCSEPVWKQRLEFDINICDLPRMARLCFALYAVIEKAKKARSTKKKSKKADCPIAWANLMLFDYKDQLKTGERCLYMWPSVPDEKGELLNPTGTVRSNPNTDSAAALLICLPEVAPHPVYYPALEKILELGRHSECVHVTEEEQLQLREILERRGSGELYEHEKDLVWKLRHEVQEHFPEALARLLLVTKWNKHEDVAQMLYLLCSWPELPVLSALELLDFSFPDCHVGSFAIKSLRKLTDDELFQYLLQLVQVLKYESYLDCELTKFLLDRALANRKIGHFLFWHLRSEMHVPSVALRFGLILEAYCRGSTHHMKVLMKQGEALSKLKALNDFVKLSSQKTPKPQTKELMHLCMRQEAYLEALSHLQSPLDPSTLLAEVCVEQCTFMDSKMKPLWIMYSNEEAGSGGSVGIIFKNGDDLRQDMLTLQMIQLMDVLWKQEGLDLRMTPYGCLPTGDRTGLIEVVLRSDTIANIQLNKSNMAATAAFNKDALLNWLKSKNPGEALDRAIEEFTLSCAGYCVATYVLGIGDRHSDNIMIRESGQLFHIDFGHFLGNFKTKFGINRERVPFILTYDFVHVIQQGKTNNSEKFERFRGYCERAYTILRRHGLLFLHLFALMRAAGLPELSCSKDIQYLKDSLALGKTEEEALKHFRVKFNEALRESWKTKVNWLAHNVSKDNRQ
Sequence (P27986 whole entry partner, species assumed): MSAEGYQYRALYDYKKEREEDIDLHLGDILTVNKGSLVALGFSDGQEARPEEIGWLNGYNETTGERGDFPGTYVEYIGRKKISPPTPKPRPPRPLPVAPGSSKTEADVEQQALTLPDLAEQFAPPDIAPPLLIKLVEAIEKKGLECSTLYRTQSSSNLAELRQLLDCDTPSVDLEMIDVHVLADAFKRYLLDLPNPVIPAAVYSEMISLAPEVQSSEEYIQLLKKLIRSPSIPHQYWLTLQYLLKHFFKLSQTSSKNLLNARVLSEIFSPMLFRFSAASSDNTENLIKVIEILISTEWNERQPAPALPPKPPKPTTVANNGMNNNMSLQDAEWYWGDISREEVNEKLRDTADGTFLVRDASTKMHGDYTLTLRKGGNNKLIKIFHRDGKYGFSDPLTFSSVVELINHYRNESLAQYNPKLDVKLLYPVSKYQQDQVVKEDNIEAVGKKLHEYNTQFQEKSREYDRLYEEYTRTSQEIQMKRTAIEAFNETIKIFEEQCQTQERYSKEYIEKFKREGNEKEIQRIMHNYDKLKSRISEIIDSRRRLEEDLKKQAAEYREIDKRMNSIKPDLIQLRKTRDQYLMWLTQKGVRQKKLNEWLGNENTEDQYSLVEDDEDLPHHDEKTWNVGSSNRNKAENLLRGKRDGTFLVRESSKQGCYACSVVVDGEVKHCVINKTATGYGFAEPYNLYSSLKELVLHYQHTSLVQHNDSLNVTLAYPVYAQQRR
Protocol Summary: Fluorescent determination of PI3K enzyme activity (Transcreener KINASE Assay), PI3K-δ
Assay type: biochemical
Test Parameters: inhibition rate at 1 μM
Reported PI3K-δ IH% maps to class as: one = under 20%, two = from 20% up to 50%, three = 50% and over

Compound: C[C@H](Nc1nc(O)nc(N)c1C#N)c1cc2ncc(Cl)n2nc1-c1ccccc1 [Compound 55]
Group: three
--
Compound: CC[C@@H](Nc1ncnc(N)c1C#N)c1cc2ncc(Cl)n2nc1-c1ccccc1 [Compound 5]
Group: two
--
Compound: CCC(Nc1ncnc(N)c1C#N)c1cc2ncc(Cl)n2nc1-c1ccccn1 (stereo not shown) [Compound 28]
Group: two
--
Compound: C[C@H](Nc1ncnc(N)c1C(=O)N(C)C)c1cc2ncc(Cl)n2nc1-c1ccccc1 [Compound 56]
Group: two
--
Compound: C[C@H](Nc1nc(N)ncc1C#N)c1cc2ncc(Cl)n2nc1-c1ccccc1 [Compound 34]
Group: one
--
Compound: COc1cc(-c2c(N)ncnc2N[C@@H](C)c2cc3ncc(Cl)n3nc2-c2ccccc2)ccn1 [Compound 50]
Group: three
--
Compound: C[C@@H](Nc1ncnc(N)c1C#N)c1cc2ncc(Cl)n2nc1-c1ccc2scnc2c1 [Compound 75]
Group: one
--
Compound: C[C@@H](Nc1ncnc(N)c1C#N)c1cc2ncc(Cl)n2nc1-c1ccccn1 [Compound 7]
Group: one
